Reported platelet count values for a set of substances
assay: Hematology assays in cynomolgus monkeys (Example 45); type: in vivo; conditions: day 50

SUBSTANCE	platelet count [µL⁻¹]
ISIS 416838: MOE gapmer, nucleobases 1018 to 1042 of SEQ ID NO: 1 (Table 6) (antisense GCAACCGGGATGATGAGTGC; MOE gapmer, wing and gap sizes not given here)	372000
ISIS 416864: MOE gapmer, nucleobases 1275 to 1318 of SEQ ID NO: 1 (Table 8) (antisense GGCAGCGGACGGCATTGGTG; MOE gapmer, wing and gap sizes not given here)	419000
ISIS 417002: MOE gapmer, nucleobases 1275 to 1318 of SEQ ID NO: 1 (Table 8) (antisense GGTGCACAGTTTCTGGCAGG; MOE gapmer, wing and gap sizes not given here)	389000
ISIS 416858: MOE gapmer, nucleobases 1275 to 1318 of SEQ ID NO: 1 (Table 8) (antisense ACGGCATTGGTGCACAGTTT; MOE gapmer, wing and gap sizes not given here)	331000
ISIS 416850: MOE gapmer, nucleobases 1275 to 1318 of SEQ ID NO: 1 (Table 8) (antisense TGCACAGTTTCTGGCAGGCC; MOE gapmer, wing and gap sizes not given here)	487000
